- protocolDetails: soluble on expression in E. coli; label from the status in PepcDB or PDB records
observable: soluble on expression in E. coli

These solved cases illustrate the format of a correct answer.
GPGSMVGPYNSKAGVVLVCDIFGLLPNSKRFADVLAEHGFLVAMPDFFGPLAWPESEWPADFQSMRWLQYVEKITQFDAFVPQMEAAIAVLRQMGCAKVGAIGMCWGAALPFMMAAQGKIDAAAAAHPSFFTADAVRAAKTPVLVLPSKDEPPMDDVEAAVNSHPMEPHVHKRFDALHHGFFGARYNPDAYTAEELKDVETARQLVLDFFKKSLH = not soluble
MINKPNQFLNHLDGLKQHFSDYDSLQKSFKKYLSENQTELNNFFFNQFEKIIVLVKKKEFKTAQERCEEELATPYFSKPLVGFFQSLLQLINHDLIEQKNQQLANMSCEKIVEMVLSDYPNKLNLIHYLLAKEASFVNPNLLQRMTFVLTDLELLELKRFSFFKALNQIPAFKNHKVTYFNSKLKQKFVITLGEFAFPQTDKTKQFFQQLIKKVSQLFLKEPVSCEFAYEIIDALLVSFFPLHPNLEVNHLAKKIHQYVSKIVINEVVDLKDPTTKLIVDTLYEQLDRAIGEEN = soluble
MRYFKRRVGSGRVYMVMDNYSPHKTKGTLEVCCRKGIHPVFTPPYSPELNMAEAVFKSLKNYMSNKIFYTIEDVKNCIKQFFEENKYRFNLNAITYLGLDKIEV = soluble
MGSDKIHHHHHHMAETSIEWTDVTWNPVAGCTVLTAGCTNCYAMRMAARLEAMGVEKYAGLTRKSGGRAKWTGRIFLDRKALSIPASWSKPRRVFVNSMSDLFHSDVPTDFISDVWKVMAQTPRHTYQILTKRPDRMVEIVPGLAKLRNVWLGTSVEDARVIYRIDKLRQVPAAVRFVSFEPLIGSVSGAGLRNIHWAIVGGESGPKARSMDPAWVDEIESMCRDQGAAFFFKQWGGKNKKAAGRTLNGRLYDEMPAPSMP = not soluble
MGSDKIHHHHHHMNNNIPLRALQIFEACARLESCSLAANELCITQSAVSQQIKQLEDYFLEKLFYRQGGKINLTEAGIELRERLAPVFYDLNSVCSSLVQNMAGEVRVHSYTSLAARWLVPKMEQLRQMYPELNINVGMFQNDIEMSDMIADIFIVTRECQDGYTIIPLVTEKLVAFCSPDYLAQSQGISLATLDQHCLLYSKHKDYGVDWDTWFRNNDIAISPNQKKIFFNHNMLAVQAAIYGQGIVLGLEQTLKVELDSGNLVKLDLPTCLSGLTYYIAYKTSKKRDARIMRIVDWIIDNYPGDHPGDRTLAR = not soluble
MGDNQVTGGDIHKLWMTAHMDISAVEDAYIKLTEQLDGDVAEGDEGKYGKAFDSWNIYREIVQLALFRTAVSARATRLALDLAVSEFTFVDGDAANGITDAGKEFLEAVGDENQTPPEYVVEPEGDPVAPLGNDE = not soluble

Recorded result, MSTKADNRHLYLKVIERIKEDIKNGIYTEKEKLPSEFELSKKLGVSRATLREALRILEEEHVIIRRHGVGTFVHSKPLFLSGIEQLNSVTKMIEQANMTPGTIFLSSQVLMPSEDDTKRFHLAEGQELFYLERVRTADGQPIVYCIDKIPMNILPNSFSHQQESMFDLLEKNSGSVISYAVTDIEPIGYHDTISPVLECDPETALLLLKQTHYDQHDKPVLYSLNYFRADKFRFHVLRKRF , soluble on expression in E. coli: not soluble

Recorded result, MAHHHHHHMKYTEITIDDGAYAKIFMHSIKYSCDDVCGILIGKYLSSNEKKKKCLITNYIPLFHTHILSPYLNLAFTLVENYYKDKDERIIGYFHISSDDSKNSDIENIKVCELISEKLIKNYNDAFVCLLEFSKYVNDEDNCLNIFMKNDKSNWEKGNVVISNKNKEFLKKNISNQHYLNIYDFDDHLNSMKCDFMNPDLFNNVS , soluble on expression in E. coli: not soluble

Recorded result, MIDELATKANVALKAMEDFTQEQVDHIVHQMAMAALDQHMPLAKMAVEETGRGIYEDKAIKNMYASEYIWNNIKHDKTVGVINKDEQTGLMEIAEPVGVVCGVTPTTNPTSTTIFKSLIALKTRNPIVFAFHPSAQKCSAEAARIVRDAAIAAGAPENCIQWIEQPSIDATSALMNHPGIAIVLATGGAGMVKSAYSTGKPALGVGPGNVPAYIEKTAKVKRAVNDLIVSKSFDNGMICASE , soluble on expression in E. coli: not soluble

Recorded result, VVVEDSGASFGESLLDTTSEPGKILVKRISGGSGITVTDYGDQVEIEASVTDALSLMYSTSTGGPASIAANALTDFDLSGALTVNSVGTGLTKSAAGIQLAAGKSGLYQITMTVKNNTVTTGNYLLRVKYGSSDFVVACPASSLTAGGTISLLIYCNVLGVVSLDVLKFSLCNDGAALSNYIINITAAKIN , soluble on expression in E. coli: soluble

Recorded result, MIKKVVNLIMTKERRTFSSEFKLQMVRLYKNGKLKNEIIRKYDLKPSIISNSIKQHQNTGPFNHQDNLKSDEKELIKLRKEVQHLKMEHDVLKQILKLILEHHHHHH , soluble on expression in E. coli: not soluble

Recorded result, QDSKVFDPFLAAITPEIMPVKGKLAEKALPLIDQQLQGQPGSTVLLVSDGVNPATIKQYQAYFAGKPYQLLILAAGNTDIVSNNPMDLDSLQKLASQTNGRLVEVTVDNSDIEQLNRYVERNMQLNGESSMPWKD , soluble on expression in E. coli: not soluble

Recorded result, MGHHHHHHSHMANSAGSMANSAGSMATLSDFFPEADPVLEKNYRRCVDLAINMSWSVPGQFKLVETPINSFLLVGDVLPNDMIESKPVNSTNLVNIPFPLSTLGVSTSKKSVEVTSYKSETEKFQEAASISEHSIRGSIVYEGLTWITAMGYNVTDFLVNMLEQMKCPENWSGLHPVDPLACVWLLYFGPKSRCSEIACVSELFIGKKGPILLPPHMYRGDTSVNSFAHHLCQYVKHLYADYEPEILSCPLDITRVKGCLSDLRQVAESCVFLSQRCLLCHLYKQNAAVSKNILTASDCIILGGSGKSLLGTYMKSYKDPATHDSILLPTYNLEAIVNYILEHYGHETAGQEINWE , soluble on expression in E. coli: not soluble

====

- protocolDetails: soluble on expression in E. coli; label from the status in PepcDB or PDB records
observable: soluble on expression in E. coli

These solved cases illustrate the format of a correct answer.
MSRSKKTRRISDIMPARKADKKPALPISNSKKRKPTRYELDVQAREEKKKRKHKGLPTGSRNVITEQKTASAKVKKDPRVGSRKKVPLMVEFVNKPEKGQMIKPVPLEPSNHATKATVSPEVELTQLENNECLNQLLDQLEAGKVLSTQDQQFVDECLDRVHELIIELGIEDDEENNEDLLLRQFETIDINKFK = not soluble
MGSDKIHHHHHHMLYVTGITGHSGQWFVKRLISEGYKGRIRCIVLPESDTDFLNKSGLDIDIVSGNLNDQEFLTSTMVGCSTVLHIASIDFSRNVVKAALDNNLDWAILVHTTGRYSKYKSASAEYIEIEEYVLKFRNRMGITVLRPTMIYGSSRDRNMYKLITFLHKIKFFPMFGEGENLMQPVHARDLGNAYYDVIVNRSTTFNKGYNLPGKRPLTYMELVRTVSDTLGRKNVIIKIPLWFSILAARVYNALDKNAIISVEQVLRMQEDKAFDYEDAVRDFSYSPVSFEDGIVEEVNEYLARYNSSRTKQR = not soluble
MSKIIGSDRVKRGMAEMQKGGVIMDVVNAEQARIAEEAGAVAVMALERVPSDIRAAGGVARMANPKIVEEVMNAVSIPVMAKARIGHITEARVLEAMGVDYIDESEVLTPADEEYHLRKDQFTVPFVCGCRNLGEAARRIGEGAAMLRTKGEPGTGNIVEAVRHMRQVNSEVSRLTVMNDDEIMTFAKDIGAPYEILKQIKDNGRLPVVNFAAGGVATPQDAALMMELGADGVFVGSGIFKSEDPEKFAKAIVQATTHYQDYELIGRLASELGTAMKGLDINQLSLEERMQERGWMAGDPLEHHHHHH = not soluble
MNRISTSSVNSSFSYSAPAEEAQNRVSSAPTNSSPPGTTTAVAQASEGQKKPGAVLSMQAQRLRQLCESSSYQYRQNALLAKSFDAQRLDINTQAGPSNSPHLNALNKLQQRDFKPAAGGLEIPFTPKSLLGGGKRVYQIGSSSRDVQVCPRGAGAALRQEIADKQLMVNHLTDELQDAIDEANQAEIANTSQQLRQARSDLAELQRRFAVLGNEDRRINQ = not soluble
MSVQPETMPDSSNKTNPTVKEVIAYLADKFPLCFSIEGEAKPLKVGLSQDLAEALADDEKVSKTLLRQVLRSYTMSWRYLACCKANAQRIGLQGENVGIVDEAQAEHAAQSLAVAKEAYAARKAEQRKEQRKDFFKKKAREERNAKTMNKAVKKGSPKKDTFAKATAESLAVLTHKFSKGNK = not soluble

Recorded result, MGSDKIHHHHHHMHISLGPLLYCWQKQQVTDFYQQVAASQIPLVYLGEAVCSRRREFKWGDYLELAQMLKQAGKEVVISTLALIEAPSEYTELKRQVDNGEFMVEANDMAAVYLANEHKLPFVCGASINNYNRASLDILQRFGMQRFVMPVELSKAWLSQVIQQKPSFEVEVLGHGYLPLAHSARCFTARHKQLTKDHCETVCREYSKGLVAQTQEQQPLLRLNGIQTQSASCLDLRSEITTMAKMGVDVFRVSPSSLDCIATANALVDAINTPENAQHFAISSDANLERTQCNGYWFGEAGLAVHANP , soluble on expression in E. coli: not soluble

Recorded result, MHHHHHHSSGVDLGTENLYFQSMVEDHYEMGEELGSGQFAIVRKCRQKGTGKEYAAKFIKKRRLSSSRRGVSREEIEREVNILREIRHPNIITLHDIFENKTDVVLILELVSGGELFDFLAEKESLTEDEATQFLKQILDGVHYLHSKRIAHFDLKPENIMLLDKNVPNPRIKLIDFGIAHKIEAGNEFKNIFGTPEFVAPEIVNYEPLGLEADMWSIGVITYILLSGASPFLGETKQETLTNISAVNYDFDEEYFSNTSELAKDFIRRLLVKDPKRRMTIAQSLEHSWIKAIRRRNVRGEDSG , soluble on expression in E. coli: soluble

Recorded result, GSLKCILLNQAEELPIEFLPKDGVYGKGKLFDSRNMEIENFTESDILQDARRAAEAHRRARYRVQSIVRPGITLLEIVRSIEDSTRTLLKGERNNGIGFPAGMSMNSCAAHYTVNPGEQDIVLKEDDVLKIDFGTHSDGRIMDSAFTVAFKENLEPLLVAAREGTETGIKSLGVDVRVCDIGRDINEVISSYEVEIGGRMWPIRPISDLHGHSISQFRIHGGISIPAVNNRDTTRIKGDSFYAVETFATTGKGSIDDRPPCSHFVLNTYKSRKLFNKDLIKVYEFVKDSLGTLPFSPRHLDYYGLVKGGSLKSVNLLTMMGLLTPYPPLNDIDGCKVAQFEHTVYLSEHGKEVLTRGDDY , soluble on expression in E. coli: soluble

Recorded result, SRSYRFSDYLHMSVSFSNDMDLFCGEDSGVFSGESTVDFSSSEVDSWPGDSIACFIEDERHFVPGHDYLSRFQTRSLDASAREDSVAWILKVQAYYNFQPLTAYLAVNYMDRFLYARRLPETSGWPMQLLAVACLSLAAKMEEILVPSLFDFQVAGVKYLFEAKTIKRMELLVLSVLDWRLRSVTPFDFISFFAYKIDPSGTFLGFFISHATEIILSNIKEASFLEYWPSSIAAAAILCVANELPSLSSVVNPHESPETWCDGLSKEKIVRCYRLMKAMAIENNRLNTPKVIAKLRVSVRASSTLTRPSDESSFSSSSPCKRRKLSGYSWVGDETSTSN , soluble on expression in E. coli: soluble

Recorded result, MGSDKIHHHHHHMTTSITIGNFKGGVGKTTTCVTFSYLLNKAHRKTLLIDFDPQGNASEIIEKTFPVFKQKNSKSLTDGIKNLDLSESIAHVTDYLDLMPSDWSLSLLPDMLEDYKKSDRPLFLKTLLTKIRNDYDYILIDVPPTLSAYTNNAVLASDYVIMVMQTQEQSYSSSLKFVSYLQGLRKDYDKSFDLLGIIAYLVKKDGPVDHEVLKAANQAFGKALFHGNVFQRERVKRFGKSGIKDEDMWDKRALYMYQVVLDEALSRINLLEE , soluble on expression in E. coli: not soluble
